- testSummary: qHTS of pediatric cancer cell lines to identify multiple opportunities for drug repurposing: Primary screen for LAN-5 cells (AID 1347100);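 note: plate controls were DMSO neutral control for no effect and bortezomib positive control for full effect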
- particulars: LAN-5 neuroblastoma viability, CellTiter-Glo luminescence, 48 h; series mostly up to 46 µM
- Experimental: Drug repurposing or repositioning has been offered as a strategy for drug development in oncology programs. […] [1] Shen, M et al. Quantitative high-throughput phenotypic screening of pediatric cancer cell lines identifies multiple opportunities for drug repurposing. […] Cells were assayed in growth media at a density of 500-1,000 cells/well. […] After a 15 min incubation at room temperature, samples were analyzed for luminescence intensity using a ViewLux High-throughput CCD imager equipped with clear filters.
Results filed as inconclusive are left out. Calls of active or inactive are those of the source. Calls come from the whole dose curve; as a rule, active = well fitted cell-killing curve with a large enough effect; inconclusive = small, poorly fitted or top-dose-only effect; inactive = no such curve, though single readings can be large or run the other way.
Output constraint: value belongs to active, inactive

Request: Outcome logged for CCN(CC)C(C)C(=O)c1ccccc1 (stereo not given) in this assay:
Response: inactive

Request: Hey, what did the test say about Cc1cccc(Cc2cnc[nH]2)c1C ?
Response: inactive

Turning now to a further compound:
Request: What is the recorded call for this compound in the test? C#C[C@]1(O)CC[C@H]2[C@@H]3CCC4=CC(=O)CCC4=C3C=C[C@@]21CC
Response: inactive

----------
- testSummary: Primary qHTS for inhibitors of MERS-S pseudo-typed particle cell entry (AID 1479149); note: nearly all actives have a fitted effect of over 60% in size
- particulars: MERS-S pseudotyped particle entry, luciferase; series mostly up to 57.1 µM
Inconclusive results are not listed. The source made the active and inactive calls. Calls come from the whole dose curve.
reportedMetric: outcome

Request: Return outcome for the following molecule: CC1(C)O[C@@H]2C[C@H]3[C@@H]4CCC5=CC(=O)CC[C@]5(C)[C@@]4(F)[C@@H](O)C[C@]3(C)[C@]2(C(=O)CCl)O1
Response: inactive

Request: State, in one line, measured outcome of CCCC(=O)OC[C@@H](OC(=O)CCC)[C@@H](OC(=O)CCC)[C@H](Cn1c2nc(=O)[nH]c(=O)c-2nc2cc(C)c(C)cc21)OC(=O)CCC
Response: inactive

Request: Return outcome (reported value) for this molecule: CCC(=O)O[C@]1(C(=O)CCl)[C@@H](C)C[C@H]2[C@@H]3CCC4=CC(=O)C=C[C@]4(C)[C@@]3(F)[C@@H](O)C[C@@]21C
Response: inactive

----------
- Test system: KB-3-1
- testSummary: Cytotoxic Profiling of Annotated Libraries Using Quantitative High-Throughput Screening (AID 1296008); note: % is set by controls: 0 for no effect and ±100 for the full control effect; nearly all actives have a fitted effect of over 60% in size
- particulars: Five cell lines viability, CellTiter-Glo ATP luminescence, 48-72 h; hits give low values
- Method: Cell-based phenotypic screening is a commonly used approach to discover biological pathways, novel drug targets, chemical probes and high-quality hit-to-lead molecules. […] A pintool (Kalypsys) was used to transfer 23 nL of compound solution to the 1536-well assay plates. […] Plates were left at room temperature for 10 min before imaging the ATP-coupled luminescence using a ViewLux microplate imager (PerkinElmer, Waltham, MA).
Records with an inconclusive call do not appear.
Here, each record is paired with measured max response data.
Return type: number; implicit unit %.

Request: Give recorded max response. CCCCCCCCC(=O)NCc1ccc(O)c(OC)c1
Response: -3.93

Request: Recall and state the measured max response for CC(C)=CCN1CC[C@@]2(C)c3cc(O)ccc3C[C@@H]1[C@@H]2C .
Response: -12.1

Request: For the molecule c1ccc2nc(N3CCNCC3)ccc2c1 , report max response.
Response: -16.3

Request: Assign max response to the following record: O=c1n(Cl)c(=O)n(Cl)c(=O)n1Cl
Response: 7.13

Request: Indicate the recorded max response value for this molecule: CC1N=C(N)OC1c1ccccc1 (configuration not stated)
Response: -3.1

Request: Give me measured max response, please, for this molecule: CCS(=O)(=O)C(C)(C)S(=O)(=O)CC
Response: 3.51

Kindly review the next molecule as well.
Request: Please list max response recorded for the molecule CC(Cc1ccc2c(c1)OCO2)NO (configuration not stated)
Response: -9.46
